# Test system: CHL
# assay-explanation: Selectivity ratio of Ki for human adrenergic alpha2A receptor expressed in CHL cells to Ki for human TAAR1 receptor
# Type: cell-based
Assign Ratio Ki to each entry below.
Would you mind answering with just the numeric figure?

Given c1ccc(CC2=NCCN2)cc1 , state its recorded Ratio Ki.
0.06

Given CC(C)N(Cc1cnc[nH]1)c1cc(Cl)cc(Cl)c1 , state its recorded Ratio Ki.
37

Given CN(Cc1ncc[nH]1)c1ccccc1 , state its recorded Ratio Ki.
0.2

Given c1ccc2c(c1)CCCN2Cc1c[nH]cn1 , state its recorded Ratio Ki.
4

Given c1ccc(NCc2ncc[nH]2)cc1 , state its recorded Ratio Ki.
0.2

Given Clc1cccc(Cl)c1Cc1ncc[nH]1 , state its recorded Ratio Ki.
0.7

Given CCc1cccc(CC)c1Cc1ncc[nH]1 , state its recorded Ratio Ki.
100

Value source: ChEMBL document CHEMBL2203234
